- target-system: T1, RSV postfusion F (postF), subtype A (respiratory syncytial virus, subtype A, UniProt P03420 26-513)
- T1 construct: also called F ΔFP; Postfusion subtype A
- assay-procedure: BLI, IgG
In this section, each of the binders is paired with its reported Kd.
Lab book: enter the figure in nM, no units written.

binder: ADI-14408 (antibody, V domains shown, also called Ab 74) VH: QVQLVQSGPALVKTTQTLTLTCTFSGFSLTTSGMCVSWIRQPPGKALEWLARIDWDDDKYYSTSLKTRLTISKDTSKNQVVLTLTNVDPVDTATYYCARMQKYDSSGYYLHYFDSWGQGTLVTVSS VL: DIRLTQSPSSLSASVGDRVTIACRASQSISSYLNWYQQKPGKSPKVLIYAASILQTGVPSRFSGSGSGTDFTLTISSLQPEDFATYYCQQSYSINQYTFGQGTKVEIK
Kd / nM: 2.14

Reported Kd for ADI-14594 (antibody, V domains shown) VH: QVQLVQSGAEVKKPGASVKLSCKASGYTFTTYTINWVRQAPGQGLEWMGWISGYNGNTDYAQKLQGRFTMTTDTSTNTAYMELRSLTSDDTAVYYCAKGGGGSESYFDYWGQGTLVTVSS VL: SYELTQPPSVSVAPGKTARISCGGNNIGSKSVHWYQQKPGQAPVLVIYYDRDRPSGIPERFSGSNSGNTATLTISRVEAGDEADYYCQLWDRSSDHPYVFGTGTKVTVL was 0.257
